- tested.system: HLA-A*26:01
- measurement.protocol: IEDB peptide-MHC binding, purified MHC/direct/fluorescence; filed as Kd, often an IC50 or EC50 that approximates it; bounds were set here for any values at or beyond the usual limits of such assays
- particulars: source organism: Mycobacterium tuberculosis str. Haarlem
assay.metric: Kd (nM)
Number in nM, nothing else.

Kindly note the recorded Kd for PVPGDWLYF , which is 1290

###

- tested.system: HLA-B*45:06
- measurement.protocol: IEDB peptide-MHC binding, purified MHC/competitive/fluorescence; filed as Kd, often an IC50 or EC50 that approximates it; bounds were set here for any values at or beyond the usual limits of such assays
- particulars: source organism: Coxiella burnetii RSA 493
pKd: −log10 of the molar value.
assay.metric: pKd

// field: pKd; key: YRATYSMAL ; value = ≤ 5.30

###

- tested.system: HLA-B*15:17
- measurement.protocol: IEDB peptide-MHC binding, purified MHC/competitive/fluorescence; filed as Kd, often an IC50 or EC50 that approximates it; bounds were set here for any values at or beyond the usual limits of such assays
- particulars: source organism: Comamonas sediminis
assay.metric: pKd
Just so you know, pKd here is -log10 of the concentration in molar units; reply with that number alone.

Query KSLGIDQIW yields pKd of 8.87

###

- tested.system: HLA-A*02:19
- measurement.protocol: IEDB peptide-MHC binding, purified MHC/competitive/fluorescence; filed as Kd, often an IC50 or EC50 that approximates it; bounds were set here for any values at or beyond the usual limits of such assays
- particulars: source organism: Giardia lamblia ATCC 50803
pKd: −log10 of the molar value.
assay.metric: pKd

Field pKd (system: HLA-A*02:19) for entry STTTCEAGV = ≤ 4.70

###

- tested.system: HLA-B*58:01
- measurement.protocol: IEDB peptide-MHC binding, purified MHC/direct/fluorescence; filed as Kd, often an IC50 or EC50 that approximates it; bounds were set here for any values at or beyond the usual limits of such assays
- particulars: source organism: Mammarenavirus juninense
assay.metric: Kd
Mention the unit after the number when you answer.

// sequence VSFSMVGLF , assay HLA-B*58:01, Kd value: 119 nM

###

- tested.system: HLA-B*18:01
- measurement.protocol: IEDB peptide-MHC binding, purified MHC/direct/fluorescence; filed as Kd, often an IC50 or EC50 that approximates it; bounds were set here for any values at or beyond the usual limits of such assays
- particulars: source organism: Ebola virus - Mayinga, Zaire, 1976
assay.metric: Kd

The reported Kd value, HLA-B*18:01, for SRTPSGKRL reads ≥ 20 µM

###

- tested.system: HLA-B*51:01
- measurement.protocol: IEDB peptide-MHC binding, purified MHC/competitive/fluorescence; filed as Kd, often an IC50 or EC50 that approximates it; bounds were set here for any values at or beyond the usual limits of such assays
- particulars: source organism: Burkholderia mallei SAVP1
assay.metric: Kd

RFNAIWFNH ≥ 20 µM

Switching to the query record.
Lookup result for RLDARLQVL ; measured Kd: ≥ 20 µM

###

- tested.system: HLA-A*02:01
- measurement.protocol: IEDB peptide-MHC binding, purified MHC/direct/fluorescence; filed as Kd, often an IC50 or EC50 that approximates it; bounds were set here for any values at or beyond the usual limits of such assays
- particulars: source organism: Corynebacterium efficiens
pKd: −log10 of the molar value.
assay.metric: pKd

pKd for ITWETPMIW is ≤ 4.70

###

The entries below come with measured Kd values attached.
- tested.system: HLA-A*32:01
- measurement.protocol: IEDB peptide-MHC binding, purified MHC/competitive/radioactivity; filed as Kd, often an IC50 or EC50 that approximates it; bounds were set here for any values at or beyond the usual limits of such assays
- particulars: source organism: Vaccinia virus Copenhagen

STFSISSIF 1.05 nM
LTIESVNAL 170 nM
ATAGLHLGF 1.69 nM

Next up:
Bench note, HLA-A*32:01: LAMNSVFTF , Kd reads 16.1 nM

###

- tested.system: HLA-B*53:01
- measurement.protocol: IEDB peptide-MHC binding, purified MHC/competitive/radioactivity; filed as Kd, often an IC50 or EC50 that approximates it; bounds were set here for any values at or beyond the usual limits of such assays
- particulars: source organism: Vaccinia virus WR
Known pKd of a selection of sequences
By convention, pKd is the negative base-10 log of a molar concentration.

Worked cases, answers included:
SPMLYQLLEA 6.64
VPDADPPIPY 5.78
LPSLEYGANY 7.88
NPKASTISWM 5.09
DPEYFDNERI 5.76
HPFIYVIRHV 5.70

Field pKd (HLA-B*53:01), entry MPNESRVKQW : 7.52

pKd value, target or system HLA-B*53:01, for SPMVIATTDM : 6.13

Item: CPKIFNNNY | System: HLA-B*53:01 | pKd: 6.48

###

- tested.system: HLA-B*44:03
- measurement.protocol: IEDB peptide-MHC binding, purified MHC/competitive/radioactivity; filed as Kd, often an IC50 or EC50 that approximates it; bounds were set here for any values at or beyond the usual limits of such assays
- particulars: source organism: Dengue virus 2 Jamaica/1409/1983
assay.metric: pKd
To interpret pKd, take it as minus log10 of a concentration measured in moles per litre.

EEEQTLTILI 6.89
MEDKTPVESW 7.15
NEMVLLQMED 5.22

Now for the sequence whose pKd we want.
What the record says about WEGNPGRFW : pKd is 7.05

###

- tested.system: HLA-B*08:02
- measurement.protocol: IEDB peptide-MHC binding, purified MHC/direct/fluorescence; filed as Kd, often an IC50 or EC50 that approximates it; bounds were set here for any values at or beyond the usual limits of such assays
- particulars: source organism: Influenza A virus H3N2
pKd: −log10 of the molar value.
assay.metric: pKd

Record summary for RLFFKCIYR : reported pKd = ≤ 4.70

###

- tested.system: HLA-A*69:01
- measurement.protocol: IEDB peptide-MHC binding, purified MHC/competitive/fluorescence; filed as Kd, often an IC50 or EC50 that approximates it; bounds were set here for any values at or beyond the usual limits of such assays
- particulars: source organism: Entamoeba histolytica
pKd: −log10 of the molar value.
assay.metric: pKd

Lab entry: HLA-A*69:01 assay, sequence RASHFRKLF , pKd = ≤ 4.70

###

- tested.system: HLA-B*44:02
- measurement.protocol: IEDB peptide-MHC binding, purified MHC/competitive/radioactivity; filed as Kd, often an IC50 or EC50 that approximates it; bounds were set here for any values at or beyond the usual limits of such assays
- particulars: source organism: Dengue virus 2 Jamaica/1409/1983
assay.metric: Kd (nM)
Answer in nM, number only, no unit symbol.

Example sequences with recorded Kd:
WEGNPGRFW 12.9
EEEQTLTILI 17.3

The sequence listed as MEDKTPVESW shows Kd equal to 33.2

###

- tested.system: HLA-A*11:01
- measurement.protocol: IEDB peptide-MHC binding, purified MHC/direct/fluorescence; filed as Kd, often an IC50 or EC50 that approximates it; bounds were set here for any values at or beyond the usual limits of such assays
- particulars: source organism: Marburg virus - Musoke, Kenya, 1980
assay.metric: pKd
pKd here is simply -log10 of the concentration when that concentration is written in mol/L.

// CVFKFIVAK : pKd value = 7.51

###

- tested.system: HLA-B*39:01
- measurement.protocol: IEDB peptide-MHC binding, purified MHC/direct/fluorescence; filed as Kd, often an IC50 or EC50 that approximates it; bounds were set here for any values at or beyond the usual limits of such assays
- particulars: source organism: Bacillus anthracis str. A0465
assay.metric: Kd

The recorded Kd for entry MSDIFASEV equals 467 nM

###

- tested.system: HLA-A*68:02
- measurement.protocol: IEDB peptide-MHC binding, purified MHC/direct/fluorescence; filed as Kd, often an IC50 or EC50 that approximates it; bounds were set here for any values at or beyond the usual limits of such assays
- particulars: source organism: Giardia intestinalis
assay.metric: Kd

Input LEKWNLGII . Output Kd: ≥ 20 µM

###

- tested.system: HLA-B*18:01
- measurement.protocol: IEDB peptide-MHC binding, purified MHC/direct/fluorescence; filed as Kd, often an IC50 or EC50 that approximates it; bounds were set here for any values at or beyond the usual limits of such assays
- particulars: source organism: Zaire ebolavirus
pKd: −log10 of the molar value.
assay.metric: pKd

The recorded pKd for entry RLAKLTEAI equals ≤ 4.70

###

- tested.system: HLA-A*11:01
- measurement.protocol: IEDB peptide-MHC binding, purified MHC/direct/fluorescence; filed as Kd, often an IC50 or EC50 that approximates it; bounds were set here for any values at or beyond the usual limits of such assays
- particulars: source organism: Rickettsia prowazekii
assay.metric: Kd

Just so you know, measured Kd for NLKLYGAEF came out at ≥ 20 µM
